biological target: Recombinant human EIF2AK3 (PERK) catalytic domain (amino acids 536-1116) (Homo sapiens (Human)); assay: PERK In Vitro Activity Assay (isolated), TR-FRET kinase assay; settings: isolated PERK enzyme, 1.5 μM ATP, read-out: Biochemical IC50
Sequence (Q9NZJ5 536-1116): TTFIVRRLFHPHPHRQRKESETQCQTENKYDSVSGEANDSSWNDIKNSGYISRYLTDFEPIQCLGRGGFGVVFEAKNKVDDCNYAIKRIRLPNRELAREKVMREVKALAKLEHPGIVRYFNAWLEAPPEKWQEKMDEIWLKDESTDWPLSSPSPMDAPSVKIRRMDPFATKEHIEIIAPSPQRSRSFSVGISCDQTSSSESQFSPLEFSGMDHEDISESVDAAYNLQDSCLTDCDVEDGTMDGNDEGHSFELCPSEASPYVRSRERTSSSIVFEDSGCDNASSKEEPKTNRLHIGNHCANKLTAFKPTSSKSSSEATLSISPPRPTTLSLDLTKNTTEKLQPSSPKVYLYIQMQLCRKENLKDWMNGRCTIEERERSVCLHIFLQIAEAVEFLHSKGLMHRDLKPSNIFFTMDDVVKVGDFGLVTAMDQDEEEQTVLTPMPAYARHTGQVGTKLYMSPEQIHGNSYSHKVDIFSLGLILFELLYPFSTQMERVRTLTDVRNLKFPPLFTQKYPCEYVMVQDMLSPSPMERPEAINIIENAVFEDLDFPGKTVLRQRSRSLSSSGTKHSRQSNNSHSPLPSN
pIC50: −log10 of the molar value.
quantity-kind: pIC50

Answered cases to consult:
| molecule | pIC50 |
| --- | --- |
| [2H]C([2H])([2H])c1nc(-c2ccc(NC(=O)C(O)c3cc(F)cc(F)c3)c(F)c2F)c2c(N)ncc(Cl)n12 (stereo not shown) [Example 156] | 7.60 to 9.00 |
| [2H]C([2H])([2H])c1nc(-c2ccc(NC(=O)C(O)c3cccc(Cl)c3)c(F)c2F)c2c(N)nc(C)cn12 (stereo not shown) [Example 141] | 7.00 to 7.29 |

Give pIC50 for each of the items listed below.
1. Cc1cnc(N)c2c(-c3ccc(NC(=O)C(O)c4cccc(F)c4)cc3OC(F)(F)F)nc(C)n12 (stereo not shown) [Example 126]
2. [2H]C([2H])([2H])c1nc(-c2ccc(NC(=O)C(O)c3cccc(F)c3)c(F)c2F)c2c(N)ncc(C)n12 (stereo not shown) [Example 133]
3. [2H]C([2H])([2H])c1nc(-c2ccc(NC(=O)C(O)c3cccc(C(F)(F)F)c3)c(F)c2F)c2c(N)nc(C)cn12 (stereo not shown) [Example 151]
4. [2H]C([2H])([2H])c1nc(-c2ccc(NC(=O)C(O)c3cc(F)cc(C(F)(F)F)c3)cc2F)c2c(N)ncc(C(F)(F)F)n12 (stereo not shown) [Example 112]
5. Cc1cc(NC(=O)C(O)c2cccc(F)c2)ccc1-c1nc(C)n2c(Cl)cnc(N)c12 (stereo not shown) [Example 29]

1. 6.60 to 7.00
2. 7.60 to 9.00
3. 7.00 to 7.29
4. 7.60 to 9.00
5. 7.60 to 9.00
